- experimental_system: ATP-dependent translocase ABCB1 (Homo sapiens, UniProt P08183)
- Sequence (P08183 whole entry): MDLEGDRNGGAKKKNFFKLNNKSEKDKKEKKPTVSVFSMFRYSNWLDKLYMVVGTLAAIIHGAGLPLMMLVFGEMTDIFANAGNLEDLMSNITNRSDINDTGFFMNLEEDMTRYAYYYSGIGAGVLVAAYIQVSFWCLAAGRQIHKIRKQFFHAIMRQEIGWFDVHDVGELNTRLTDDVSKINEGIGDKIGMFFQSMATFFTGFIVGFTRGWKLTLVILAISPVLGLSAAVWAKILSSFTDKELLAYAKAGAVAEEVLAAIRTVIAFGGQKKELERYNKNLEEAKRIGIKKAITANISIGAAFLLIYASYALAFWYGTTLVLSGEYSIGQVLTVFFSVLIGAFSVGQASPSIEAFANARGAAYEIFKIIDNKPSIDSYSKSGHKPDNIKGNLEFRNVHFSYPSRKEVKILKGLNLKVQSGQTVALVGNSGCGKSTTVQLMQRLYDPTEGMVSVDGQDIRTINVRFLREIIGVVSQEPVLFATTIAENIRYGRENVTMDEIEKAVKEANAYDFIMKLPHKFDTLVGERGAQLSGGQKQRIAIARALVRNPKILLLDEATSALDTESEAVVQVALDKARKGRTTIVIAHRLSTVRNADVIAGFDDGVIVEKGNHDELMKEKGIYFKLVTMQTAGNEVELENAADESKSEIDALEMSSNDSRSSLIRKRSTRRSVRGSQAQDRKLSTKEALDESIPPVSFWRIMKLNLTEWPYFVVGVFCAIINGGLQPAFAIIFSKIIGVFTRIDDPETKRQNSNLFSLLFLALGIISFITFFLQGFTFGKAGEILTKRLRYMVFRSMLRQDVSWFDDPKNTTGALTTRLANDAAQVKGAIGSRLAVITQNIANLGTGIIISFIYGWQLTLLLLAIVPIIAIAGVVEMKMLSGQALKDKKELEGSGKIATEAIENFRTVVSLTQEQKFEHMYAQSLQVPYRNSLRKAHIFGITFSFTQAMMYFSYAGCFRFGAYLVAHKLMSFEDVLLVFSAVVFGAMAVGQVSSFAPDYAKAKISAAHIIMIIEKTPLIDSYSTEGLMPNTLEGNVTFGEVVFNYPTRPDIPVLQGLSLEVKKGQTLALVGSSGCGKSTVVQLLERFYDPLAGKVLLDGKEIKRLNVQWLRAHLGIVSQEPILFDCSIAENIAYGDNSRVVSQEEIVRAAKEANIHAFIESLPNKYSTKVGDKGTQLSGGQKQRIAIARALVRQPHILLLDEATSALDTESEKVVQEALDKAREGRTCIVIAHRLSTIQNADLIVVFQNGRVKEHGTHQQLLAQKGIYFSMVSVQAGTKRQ
- experiment_notes: Inhibition of P-glycoprotein expressed in MDR CCRF vcr1000 cells by daunorubicin efflux assay
attribute_measured: EC50 (µM)

(1) CC(C)N(CC(O)COc1ccc(C(=O)CCc2ccccc2)cc1)C(C)C (stereo unspecified)
(2) O=C(CCc1ccccc1)c1ccccc1OCC(O)CNC1CCCCC1 (stereo unspecified)
Kindly identify which of 1 and 2 has the larger recorded EC50 value. Give the label of your selection.
1
(1: 0.915 µM, 2: 0.341 µM)

(1) CC(C)N(CC(O)COc1ccccc1C(O)CCc1ccccc1)C(C)C (stereo unspecified)
(2) CC(=O)c1c(C)cc(C)c(CSc2nc3ccc(NC(=O)c4cccc5ccccc45)cc3s2)c1C
(3) COc1ccc(C2Nc3ccccc3C(=O)N2c2ccc(NC(C)=O)cc2)cc1 (stereo unspecified)
Put the compounds in ascending order of EC50. List labels; respect the requested ordering.
2, 1, 3
(2: 0.11 µM, 1: 1.74 µM, 3: 20.9 µM)

(1) O=C(CCc1ccccc1)c1ccccc1OCCCCCCCCN1CCCCC1
(2) O=C(O)COc1ccccc1C(=O)CCc1ccccc1
(3) CC(=O)c1ccc(OCC(O)CN2CCOCC2)cc1 (stereo unspecified)
Put the entries in order of EC50, starting with the largest number. Form entry: labels listed in requested order.
2, 3, 1
